Molecular target: NF-kB p65 (RelA) (UniProt Q04206 Q04206:1-551)
Sequence (Q04206 whole entry, one chain of several): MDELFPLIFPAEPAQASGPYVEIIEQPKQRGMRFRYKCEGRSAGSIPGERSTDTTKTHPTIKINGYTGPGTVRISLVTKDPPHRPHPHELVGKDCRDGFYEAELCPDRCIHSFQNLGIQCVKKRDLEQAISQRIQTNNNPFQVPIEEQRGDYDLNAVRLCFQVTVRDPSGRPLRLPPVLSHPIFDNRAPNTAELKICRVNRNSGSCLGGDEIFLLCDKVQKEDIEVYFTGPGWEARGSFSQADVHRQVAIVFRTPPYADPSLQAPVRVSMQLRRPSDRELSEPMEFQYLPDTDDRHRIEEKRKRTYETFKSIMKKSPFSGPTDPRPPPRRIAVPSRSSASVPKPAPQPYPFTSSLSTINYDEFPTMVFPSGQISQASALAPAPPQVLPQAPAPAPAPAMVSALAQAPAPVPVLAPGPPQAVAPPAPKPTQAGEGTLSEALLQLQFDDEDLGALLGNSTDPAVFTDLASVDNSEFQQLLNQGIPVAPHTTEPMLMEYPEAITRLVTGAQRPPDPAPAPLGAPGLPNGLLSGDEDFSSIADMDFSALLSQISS
Assay: competition; primary screen 1.61
Conditions: protein: extract; tags: TPA and CI-stimulated Jurkat nuclear extract, Active Motif TransAM kit
Reported metric: IC50 (nM)
Numbers only, in nM.

Exercise: // Input: SODN7 (dsDNA, PS all bonds, both strands) DNA 1: CGCGGGATTTCCCAGC DNA 2: GCTGGGAAATCCCGCG . Output its IC50 only.
Key: 1.75
